PROTOCOL_SUMMARY: Measurement of stability of anisomycin derivatives in rat plasma
Format: in vitro ADME
CONDITION_LABEL: rat, plasma
RECORDED_METRIC: Half-life (h)
# unit: h | format: bare number

Give the measured Half-life of COc1ccc(CC2NCC(OC(C)=O)C2OC(N)=O)cc1 (stereo not shown) .
6.67
